Values were extracted from patent US12331044B2.

Target: human HDAC1 (Homo sapiens (Human))
Sequence (Q13547 whole entry): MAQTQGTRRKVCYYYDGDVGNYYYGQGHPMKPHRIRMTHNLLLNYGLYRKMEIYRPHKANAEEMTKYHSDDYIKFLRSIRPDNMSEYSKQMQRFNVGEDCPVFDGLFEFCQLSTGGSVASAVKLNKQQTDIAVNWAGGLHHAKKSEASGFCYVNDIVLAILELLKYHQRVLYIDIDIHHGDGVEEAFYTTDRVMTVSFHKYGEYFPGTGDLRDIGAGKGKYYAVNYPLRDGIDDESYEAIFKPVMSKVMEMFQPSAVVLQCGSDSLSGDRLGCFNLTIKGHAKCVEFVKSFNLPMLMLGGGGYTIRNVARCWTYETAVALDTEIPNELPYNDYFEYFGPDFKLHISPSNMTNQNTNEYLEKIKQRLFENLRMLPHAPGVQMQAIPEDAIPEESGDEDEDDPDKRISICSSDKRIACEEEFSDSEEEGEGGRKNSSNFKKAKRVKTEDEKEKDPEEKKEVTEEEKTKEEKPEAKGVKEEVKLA
With a cut-off of 1000 pM, any IC50 strictly below it is called met; any IC50 meeting it or above is called not met.

| COMPOUND | CLASSIFICATION |
| --- | --- |
| COc1cc2nc(C)ccc2cc1-c1cnc([C@H](CCCCCC(=O)c2ccon2)NC(=O)CN(C)C)[nH]1 | not met |
| COc1nc2ccccc2cc1-c1cnc([C@H](CCCCCC(=O)c2ncco2)NC(=O)C2COCCO2)[nH]1 (stereo partly drawn) | met |
| CN(C)C1(C(=O)N[C@@H](CCCCCC(=O)c2ccon2)c2ncc(-c3ccccc3F)[nH]2)CCCC1 | met |
| CN(C)C1(C(=O)N[C@@H](CCCCCC(=O)c2ccon2)c2ncc(-c3ccccc3F)[nH]2)CCC1 | met |
| CN1CCC2(CC1)C[C@@H]2C(=O)N[C@@H](CCCCCC(=O)c1ccon1)c1nc(-c2ccccc2F)c[nH]1 | met |
| COc1nc2ccccc2cc1-c1cnc([C@H](CCCCCC(=O)c2ncco2)NC(=O)CN(C)C)[nH]1 | met |
| COc1nc2ccccc2cc1-c1cnc([C@H](CCCCCC(=O)c2ncco2)NC(=O)CN2CCOCC2)[nH]1 | not met |
| COc1cc2nc(C)ccc2cc1-c1cnc([C@H](CCCCCC(=O)c2ncco2)NC(=O)c2cc3n(n2)CCCO3)[nH]1 | not met |
| COc1nc2ccccc2cc1-c1cnc([C@H](CCCCCC(=O)c2ncco2)NC(=O)c2ccc(OC(F)F)nc2)[nH]1 | not met |
| Cc1cc(C(=O)CCCCC[C@H](NC(=O)CN(C)C)c2nc(-c3ccccc3F)c[nH]2)no1 | met |
| CCN1CCC2(CC1)C[C@@H]2C(=O)N[C@@H](CCCCCC(=O)c1ncco1)c1ncc(-c2cc(OC3CCC3)ccc2F)[nH]1 | not met |
| CN1CCC2(CC1)C[C@@H]2C(=O)N[C@@H](CCCCCC(=O)c1ncco1)c1[nH]c(-c2ccc(F)cc2)nc1C#N | met |
| Cn1cc2cc(-n3ccc([C@H](N)CCCCCC(=O)c4ncco4)n3)ccc2n1 | not met |
| COc1nc2ccccc2cc1-c1cnc([C@H](CCCCCC(=O)c2ncco2)NC(=O)[C@H]2CCC(=O)N2)[nH]1 | not met |
| COc1cc2nc(C)ccc2cc1-c1cnc([C@H](CCCCCC(=O)c2ncco2)NC(=O)CN2CCOCC2=O)[nH]1 | not met |
| Cc1cc(C(=O)CCCCC[C@H](N)c2nc(-c3ccccc3F)c[nH]2)no1 | not met |
| CCN1CCC2(CC1)C[C@@H]2C(=O)N[C@@](C)(CCCCCC(=O)c1ccon1)c1ncc(-c2ccccc2F)[nH]1 | met |
| CN1CCC1C(=O)N[C@@H](CCCCCC(=O)c1ccon1)c1ncc(-c2ccccc2F)[nH]1 (stereo partly drawn) | met |
